This listing pairs compounds with measured TGI.
Tested on: K-562 leukemia
test_details: NCI tumour cell line growth inhibition, 48 h

| compound | TGI |
| --- | --- |
| CC1(C)C(c2ccccc2)=NN(O)c2ccccc21 | > 100 µM |
| C[C@]12CCC3c4ccc(O)cc4CC[C@H]3C1CC(=O)N(N)C2=O (stereo not given in full) | > 100 µM |
| CC1=C(C)C(=O)C2=C(OCCCO2)C1=O | 54 µM |
| CC1(C)C(c2ccccc2)C12CCC1(C2=O)C(c2ccccc2)C1(C)C (stereo not given) | 38.4 µM |
| CC(N=C(N)N)C(=O)O (stereo not given) | > 100 µM |
| Cn1cc(C2=C(c3c4n(c5ccccc35)CCCC4)C(=O)NC2=O)c2ccccc21 | > 25 µM |
| CCC1=C(C)/C(=C/c2[nH]c(C(Br)Br)c(CC)c2C)N=C1C(Br)Br | > 100 µM |
| O=c1[nH][nH]c(=O)[nH]1 | > 100 µM |
| O=c1[nH]c(=O)n(C2CC(O)C(CO)O2)cc1OCCc1ccccc1 (stereo not given) | > 100 µM |
| CC(NC(=O)C(OC(=O)C(C)NC(=O)OC(C)(C)C)C(C)C)C(=O)OC(C(=O)O)C(C)C (stereo not given) | > 100 µM |
| O=C(N/C(=C\c1ccccc1[N+](=O)[O-])c1nc2ccccc2[nH]1)c1ccccc1 | > 100 µM |
| C=CCn1c(=O)c2cnc(Nc3ccc(N4CCN(C)CC4)cc3)nc2n1-c1ccc2c(n1)[C@@](O)(CC)CC2 | > 34.8 µM |
| Cc1ccc(C2CC(c3ccc([N+](=O)[O-])cc3)=Nc3ccccc3S2)cc1 (stereo not given) | 41.5 µM |
| O=C1c2ccccc2C(=O)C2C1C1C(=O)c3ccccc3C(=O)C21 (stereo not given) | > 100 µM |
| N#CC(c1ccc(Cl)cc1)c1c(O)nc2ccc(=N)cc-2n1O (stereo not given) | > 100 µM |

---

Test system: SNB-78 CNS
test_details: NCI tumour cell line growth inhibition, 48 h
property: TGI

| compound | result |
| --- | --- |
| N#CCCN(CCC#N)C(=O)c1cccc(C(=O)N(CCC#N)CCC#N)c1 | > 100 µM |
| CC1(C)C(c2ccccc2)C12CCC1(C2=O)C(c2ccccc2)C1(C)C (stereo unspecified) | 62.4 µM |
| O=C1CSC(/C(=C/c2ccccc2)c2nc3ccccc3[nH]2)=N1 | > 100 µM |
| C#CCSc1nc(N)c2ncn(C3OC(CO)C(O)C3O)c2n1 (stereo unspecified) | > 100 µM |
| O=C(CC(=O)c1ccc([N+](=O)[O-])cc1)C(=O)Nc1nccs1 | > 100 µM |
| NC(C/[N+]([O-])=N/O)C(=O)O (stereo unspecified) | > 500 µM |
| CC1(C)CCC[C@@]2(C)C1C[C@H](O)[C@@]1(C)O[C@@](C)([C@H](O)CO)CCC21 (stereo partly specified) | > 100 µM |
| CNC(C)Cc1ccccc1O (stereo unspecified) | > 100 µM |
| O=C(O)c1c[nH]c2c(=O)[nH]cnc12 | > 100 µM |
| CN1C(OCc2ccccc2)c2c(ccc3c2OCO3)C2C=Cc3cc4c(cc3C21)OCO4 (stereo unspecified) | 2.04 µM |
| O=C(O)C1CCc2nnc(-c3ccccc3)n21 (stereo unspecified) | > 100 µM |
